These entries and their values trace back to the MegaScale stability set (Tsuboyama et al. 2023).

B1: EHEE_rd2_0196 (parent)
chain: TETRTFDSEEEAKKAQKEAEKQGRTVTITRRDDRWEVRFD

Variants of: B1
Experiment description: folding stability dG (cDNA display proteolysis); higher = more stable
Setup conditions: PBS, room temperature
Property label: folding stability dG (kcal/mol)
Hi! Could you send only the number? It should be in kcal/mol, unit omitted.

Would you please look over these solved cases?
variant=Q22T numeric_result=2.82
variant=Q16L numeric_result=2.89

Requested read-out: folding stability dG. Entry: G23K
1.61

Param item = T29L ; retrieve measured folding stability dG.
2.53

What value of folding stability dG has been reported for the following variant? I28V
2.83

Reported folding stability dG for A15T : what is it?
2.04

What does the record list as folding stability dG for A19T ?
1.27

Consider the variant shown here: Q22W What is its recorded folding stability dG?
2.8

Endpoint output: folding stability dG of R38Y . Value?
2.24

# query: folding stability dG of entry E2D
2.71

I'd like to know its folding stability dG. The variant in question is D33G
3.39
